- PROTOCOL DESCRIPTION: In vitro 3T3 NRU phototoxicity assay OECD 432
- Format: cell-based, mouse
- CONDITIONS: mouse, -IRR, C1 = 200 µg/mL, reference item
PROPERTY: viability at 1 h, 200 µg/mL (%)
Just the number please, in %, no unit attached.

[Q] Quick one: viability at 1 h, 200 µg/mL for CN(C)CCCN1c2ccccc2Sc2ccc(Cl)cc21 ?
[A] 0.41

###

- PROTOCOL DESCRIPTION: In vitro 3T3 NRU phototoxicity assay OECD 432
- Format: cell-based, mouse
- CONDITIONS: mouse, +IRR (5 J/cm^2), C3 = 22.22 µg/mL, reference item
PROPERTY: viability at 1 h, 22.22 µg/mL (%)
Please reply with the bare figure in % and do not write the unit itself.

[Q] Returns the measured viability at 1 h, 22.22 µg/mL for the input compound. Input: CN(C)CCCN1c2ccccc2Sc2ccc(Cl)cc21
[A] 1.62

###

- PROTOCOL DESCRIPTION: In vitro 3T3 NRU phototoxicity assay OECD 432
- Type: cell-based, mouse
- CONDITIONS: mouse, +IRR (5 J/cm^2), C6 = 0.823 µg/mL, reference item
PROPERTY: viability at 1 h, 0.823 µg/mL

[Q] Fill in: viability at 1 h, 0.823 µg/mL of CN(C)CCCN1c2ccccc2Sc2ccc(Cl)cc21 is ___
[A] 83.4%

###

- PROTOCOL DESCRIPTION: In vitro 3T3 NRU phototoxicity assay OECD 432
- Type: cell-based, mouse
- CONDITIONS: mouse, -IRR, C7 = 0.274 µg/mL, reference item
PROPERTY: viability at 1 h, 0.274 µg/mL

[Q] Entry under review: CN(C)CCCN1c2ccccc2Sc2ccc(Cl)cc21 . Reported viability at 1 h, 0.274 µg/mL?
[A] 104%

###

- PROTOCOL DESCRIPTION: In vitro 3T3 NRU phototoxicity assay OECD 432
- Format: cell-based, mouse
- CONDITIONS: mouse, -IRR, C3 = 22.22 µg/mL, reference item
PROPERTY: viability at 1 h, 22.22 µg/mL (%)
Value expressed in %; do not type the unit.

[Q] Please give the measured viability at 1 h, 22.22 µg/mL for this molecule: CN(C)CCCN1c2ccccc2Sc2ccc(Cl)cc21
[A] 97.8

###

- PROTOCOL DESCRIPTION: In vitro 3T3 NRU phototoxicity assay OECD 432
- Format: cell-based, mouse
- CONDITIONS: mouse, +IRR (5 J/cm^2), C7 = 0.274 µg/mL, reference item
PROPERTY: viability at 1 h, 0.274 µg/mL (%)
# value in %; strip the unit string

[Q] Could you share which viability at 1 h, 0.274 µg/mL value was measured for CN(C)CCCN1c2ccccc2Sc2ccc(Cl)cc21 ?
[A] 104

###

- PROTOCOL DESCRIPTION: In vitro 3T3 NRU phototoxicity assay OECD 432
- Format: cell-based, mouse
- CONDITIONS: mouse, -IRR, C4 = 7.407 µg/mL, reference item
PROPERTY: viability at 1 h, 7.407 µg/mL (%)
Entry rule: numbers only, all in %.

[Q] Can you look up the measured viability at 1 h, 7.407 µg/mL of CN(C)CCCN1c2ccccc2Sc2ccc(Cl)cc21 for me?
[A] 104

###

- PROTOCOL DESCRIPTION: In vitro 3T3 NRU phototoxicity assay OECD 432
- Format: cell-based, mouse
- CONDITIONS: mouse, -IRR, C2 = 66.67 µg/mL, reference item
PROPERTY: viability at 1 h, 66.67 µg/mL (%)
Give a bare numeral; the unit % is implied.

[Q] Look up viability at 1 h, 66.67 µg/mL for this molecule: CN(C)CCCN1c2ccccc2Sc2ccc(Cl)cc21
[A] 0.01

###

- PROTOCOL DESCRIPTION: In vitro 3T3 NRU phototoxicity assay OECD 432
- Assay type: cell-based, mouse
- CONDITIONS: mouse, +IRR (5 J/cm^2), C8 = 0.091 µg/mL, reference item
PROPERTY: viability at 1 h, 0.091 µg/mL (%)
Answer with a number only, understood to be in %.

[Q] # viability at 1 h, 0.091 µg/mL lookup, item CN(C)CCCN1c2ccccc2Sc2ccc(Cl)cc21 [CPZ, Chlorpromazine]
[A] 103
